- System: T-47D breast
- Test: NCI-60 one-dose screen, 48 h
- Conditions: 10 µM unless noted
About 83,000 compounds went through this panel and 20% of them were active in at least one assay; those are over-represented in the sample as a whole. The source made the active and inactive calls. Rule for the calls: active = growth percent below 10; inactive = the rest.
Possible outcomes: 1.0 (active), 0.0 (inactive)

1. Cn1c(=O)c2c(nc(Br)n2CC(=O)Nc2ccc(F)cc2)n(C)c1=O : 0.0
2. Cn1cc(-c2csc(-c3cn(CCNC(=O)OC(C)(C)C)c4ccccc34)n2)c2cccnc21 : 1.0
3. O=C(O[C@@H]1Cc2c(O)cc(O)cc2O[C@@H]1c1cc(O)c(O)c(O)c1)c1cc(O)c2c(c1)OCO2 : 0.0
4. Cn1c(/C(C#N)=C/c2ccc3ccccc3c2)cc2ccccc21 : 0.0
5. Cn1cc(-c2nc(-c3c[nH]c4ncccc34)cs2)c2ccccc21 : 0.0
6. Oc1cc(/C=C/c2nc(N3CCOCC3)c3cc(Cl)c(Cl)cc3n2)cc(O)c1O : 0.0
7. CC(C)=CCC[C@](C)(O)[C@H]1CC[C@]2(C)[C@@H]1CC[C@@H]1[C@@]3(C)C/C(=C/c4cccc([N+](=O)[O-])c4)C(=O)C(C)(C)[C@@H]3CC[C@]12C : 0.0
8. COc1ccc(-c2nc(SCC(=O)Nc3ccc(C(C)=O)cc3)[nH]c(=O)c2C#N)cc1 : 0.0
9. COC(=O)[C@]12CC[C@@H](C)[C@H](C)[C@@H]1C1=CC[C@@H]3[C@@]4(C)C[C@@H](O)[C@H](O)[C@@](C)(CO)C4=CC[C@@]3(C)[C@]1(C)CC2 : 1.0
10. O=C1C(Cl)=C(Nc2ccc(S(=O)(=O)c3ccc(NC4=C(Cl)C(=O)c5ccccc5C4=O)cc3)cc2)C(=O)c2ccccc21 : 1.0

====

Each item that follows carries a reported growth.
- Tested on: NCI-H226 lung
- Test: NCI-60 one-dose screen, 48 h (100 = growth as untreated, 0 = no growth, -100 = all killed)
- Conditions: 10 µM unless noted
Compounds without any hit were thinned out: in the full panel of roughly 83,000, 20% have a hit.
Observable: growth (%)

1. C=C(C)[C@@H]1CC[C@]2(C)[C@H](CC[C@@H]3[C@H]4[C@H]5OC[C@@]4(CCC5(C)C)CC[C@]32C)[C@@]1(C)CCCN : 100
2. O=C(NC(Cc1cn(Cc2ccccc2)cn1)C(=O)O)OCC1c2ccccc2-c2ccccc21 (configuration not stated) : 102
3. CCc1ccc(-c2ccc(Nc3ccccc3)nn2)cc1S(N)(=O)=O : 86.8
4. CC(C)(C)CC(C)(C)c1ccc(OCCOCC[N+](C)(C)CC(=O)[O-])cc1 : 105
5. CC1(C)C(=O)/C(=C\c2ccco2)C[C@]2(C)[C@H]3CC[C@@H]4[C@@H](C(=O)/C=C/c5ccco5)CC[C@@]4(C)[C@]3(C)CC[C@@H]12 : 103
6. N#Cc1cnc2cc(OC[C@@H](O)CO)c(NC(=O)CC3CSSC3)cc2c1Nc1ccc(OCc2cccc(F)c2)c(Cl)c1 : -65.3
7. CCN1CCN(C(=O)[C@@]2(C)CC[C@]3(C)CC[C@]4(C)C(=CC(=O)[C@@H]5[C@@]6(C)CC[C@H](OC7C[C@@H](O)[C@@H](O)C(C)O7)C(C)(C)[C@@H]6CC[C@]54C)[C@@H]3C2)CC1 (some centres not stated) : 26.3
